test system: inflamed rat hind paw; experiment: Randall-Selitto test in rats (carrageenan-induced inflammatory pain, mechanical nociceptive threshold); type: in vivo; settings: substance applied alone; A i.v., NSAIDs i.p.
Counter-ions that a name gives are not always drawn.
quantity: timepoint of peak effect (min p. appl.)
The answer is to be given in min p. appl.; state only the numeric part.

molecule	timepoint of peak effect (min p. appl.)
COc1cccc([C@@]2(O)C[C@H](O)CC[C@@H]2CN(C)C)c1 (racemic) [A, hydrochloride]	15
COc1ccc2cc([C@H](C)C(=O)O)ccc2c1	45
Cc1c(N(C)CS(=O)(=O)[O-])c(=O)n(-c2ccccc2)n1C.[Na+] [Metamizol-Sodium, metamizol-sodium]	45
CC(C)Cc1ccc(C(C)C(=O)O)cc1 (centres unmarked)	30

Now consider the entry below.
Query block: Requested read-out: timepoint of peak effect. Entry: O=C(O)Cc1ccccc1Nc1c(Cl)cccc1Cl
Result block: 30
